Data provenance: PubChem BioAssay (NCI)

# growth per entry
# System: SN12C renal
# protocol: NCI-60 one-dose screen, 48 h (100 = growth as untreated, 0 = no growth, -100 = all killed)
# condition details: 10 µM unless noted
This is part of a sample that, as a whole, favours compounds with a hit. Of some 83,000 tested, about 20% had one in any assay.

>  <molecule>
Fc1ccc2[nH]cc(-c3nc(-c4c[nH]c5c(Cl)nccc45)cs3)c2c1

>  <growth / %>
65.9

$$$$
>  <molecule>
C[C@@H]1NC(=O)[C@H](Cc2ccccc2)N(Cc2cccnc2)C1=O

>  <growth / %>
93.6

$$$$
>  <molecule>
CC(C)c1ccc2c(c1)CC[C@H]1[C@](C)(C(=O)OCC#CCN3CCCC3)CCC[C@]21C

>  <growth / %>
71.5

$$$$
>  <molecule>
CCN(CC)CCCNc1cc(OC)c(OC)c2cccnc12

>  <growth / %>
57.3

$$$$
>  <molecule>
O=S(=O)(Nc1cc(Sc2nc3ccccc3s2)c(O)c2ccccc12)c1ccc2ccccc2c1

>  <growth / %>
90.6

$$$$
>  <molecule>
CCOC(=O)/C=C1\S/C(=N\Nc2cc(=O)[nH]c3ccc(Br)cc23)N(c2ccccc2)C1=O

>  <growth / %>
78.9

$$$$
>  <molecule>
CCOC(=O)C1=C(CCl)N(C)C(=O)NC1c1ccc2c(c1)OCO2 (stereo not given)

>  <growth / %>
58.6

$$$$
>  <molecule>
C=C1SC(=Nc2ccccc2Cl)N(C(=O)c2sc3ccccc3c2Cl)C1(C)C

>  <growth / %>
78.9

$$$$
>  <molecule>
O=C(O)c1cn(C2CC2)c2cc(N3CCN(C(=O)N/N=C/c4cccc5ccccc45)CC3)c(F)cc2c1=O

>  <growth / %>
96.6

$$$$
>  <molecule>
O=[N+]([O-])c1ccccc1Sc1ccccc1[N+](=O)[O-]

>  <growth / %>
99.3

$$$$

----------
# Tested on: UACC-257 melanoma
# protocol: NCI-60 one-dose screen, 48 h (100 = growth as untreated, 0 = no growth, -100 = all killed)
# condition details: 10 µM unless noted
Compounds without any hit were thinned out: in the full panel of roughly 83,000, 20% have a hit.
Property: growth; scope: individual molecules

>  <molecule>
C[C@@H]1NC(=O)[C@H](Cc2ccccc2)N(Cc2cccnc2)C1=O

>  <growth (%)>
91.7

$$$$
>  <molecule>
COc1ccc2c(O)c(/C=C3\N=Nc4ncccc43)oc2c1C[C@@H]1CCNC[C@H]1F

>  <growth (%)>
13.7

$$$$
>  <molecule>
O=C1CCCC1[n+]1ccccc1 (centres undefined)

>  <growth (%)>
79.2

$$$$
>  <molecule>
Cc1ccc2nc(-c3ccc(C(=O)N/N=C/c4ccc([N+](=O)[O-])cc4)cc3)[nH]c2c1

>  <growth (%)>
108

$$$$
>  <molecule>
O=C(c1ccc(Br)cc1)C(Br)C(c1ccc(Cl)cc1)C(c1ccccc1)[N+](=O)[O-] (centres undefined)

>  <growth (%)>
102

$$$$
>  <molecule>
C#CCOc1cccc(Nc2ncnc3cc(NC(=O)CCl)ccc23)c1

>  <growth (%)>
-43.3

$$$$
>  <molecule>
CS(=O)(=O)Nc1cc(-c2ccc3ncnc(Nc4ccc(OCc5ccccn5)c(Cl)c4)c3c2)cnc1Cl

>  <growth (%)>
14.3

$$$$
>  <molecule>
CCOC(=O)/C=C1\S/C(=N\Nc2cc(=O)[nH]c3ccc(Br)cc23)N(c2ccccc2)C1=O

>  <growth (%)>
89.9

$$$$
>  <molecule>
COCCn1cc(-c2nc(-c3cn(CCOC)c4ncccc34)cs2)c2cc(F)ccc21

>  <growth (%)>
69.5

$$$$
>  <molecule>
CCN(CC)CCN1C(=O)c2c(c3c4ccccc4[nH]c3c3ccc4ccccc4c23)C1=O

>  <growth (%)>
105

$$$$
>  <molecule>
COC(=O)c1c2c(c(C)[n+]([O-])c1C)C(=O)C(NCc1ccccc1)=CC2=O

>  <growth (%)>
-22

$$$$
>  <molecule>
CCCCNC(=O)c1ccc2c(c1)nc(-c1ccccc1)n2C1CCCCC1

>  <growth (%)>
109

$$$$
>  <molecule>
CCN(CC)CCCNc1cc(OC)c(OC)c2cccnc12

>  <growth (%)>
67

$$$$
>  <molecule>
COc1ccc(C(=O)/C=C/c2ccccc2)cc1S(N)(=O)=O

>  <growth (%)>
90.9

$$$$
>  <molecule>
Cc1c(O)cc(-c2cnc(N/N=C/c3ccccc3)s2)c(O)c1C

>  <growth (%)>
95.5

$$$$
>  <molecule>
CN(C)C1CN(C(=O)c2cc(-c3ccc4ncnc(N5CCc6cc(F)c(Cl)cc65)c4c3)cnc2N)C1

>  <growth (%)>
16.4

$$$$
>  <molecule>
O=C(Nc1cc(Cl)cc(Cl)c1)Oc1c(Cl)c(Cl)c(Cl)c(Cl)c1Cl

>  <growth (%)>
83.7

$$$$
>  <molecule>
Cc1ncc(C(=O)Nc2ccc(CN3CCN(C)CC3)c(C(F)(F)F)c2)cc1C#Cc1cnc(N)c2ccc(C#N)cc12

>  <growth (%)>
-9.1

$$$$
>  <molecule>
CC1(C)CC[C@]23CC[C@]4(C)[C@H](CC[C@@H]5[C@@]6(C)C/C(=C/O)C(=O)C(C)(C)[C@@H]6CC[C@]54C)[C@H]2[C@H]1OC3

>  <growth (%)>
101

$$$$

----------
Parameter: growth. Scope: all listed entries.
# Test system: NCI-H226 lung
# protocol: NCI-60 one-dose screen, 48 h (100 = growth as untreated, 0 = no growth, -100 = all killed)
# condition details: 10 µM unless noted
This is part of a sample that, as a whole, favours compounds with a hit. Of some 83,000 tested, about 20% had one in any assay.
metric name: growth (%)

>  <molecule>
Clc1ccc(Nc2nnc(CNc3ccccc3)c3ccccc23)cc1

>  <subject of test>
NCI-H226 lung

>  <metric name>
growth

>  <readout units>
%

>  <observed result>
25

$$$$
>  <molecule>
Nc1cc(C(=O)O)cc(-n2c(O)c(C=C3N=c4ccccc4=N3)sc2=S)c1

>  <subject of test>
NCI-H226 lung

>  <metric name>
growth

>  <readout units>
%

>  <observed result>
85.4

$$$$
>  <molecule>
N#Cc1ccccc1-c1ccc(CN2C(=O)S/C(=C\c3ccc(Br)cc3)C2=O)cc1

>  <subject of test>
NCI-H226 lung

>  <metric name>
growth

>  <readout units>
%

>  <observed result>
86.9

$$$$
>  <molecule>
Cc1c2ncccc2nc2[nH]c3ccc(OCCN(C)C)cc3c12

>  <subject of test>
NCI-H226 lung

>  <metric name>
growth

>  <readout units>
%

>  <observed result>
32.7

$$$$
>  <molecule>
C=CN(C(=O)N1CCN(c2cc3c(cc2F)c(=O)c(C(=O)O)cn3C2CC2)CC1)c1nc(-c2ccccc2)cs1

>  <subject of test>
NCI-H226 lung

>  <metric name>
growth

>  <readout units>
%

>  <observed result>
98.1

$$$$
>  <molecule>
c1ccc(Cn2cc3c(c2-c2ccccc2)CCc2cnoc2-3)cc1

>  <subject of test>
NCI-H226 lung

>  <metric name>
growth

>  <readout units>
%

>  <observed result>
83.6

$$$$
>  <molecule>
O=c1cc(-c2ccccc2)nc(SCc2nc3cc(Cl)c(Cl)cc3[nH]2)[nH]1

>  <subject of test>
NCI-H226 lung

>  <metric name>
growth

>  <readout units>
%

>  <observed result>
101

$$$$
>  <molecule>
COc1ccc(-c2nc3ccc(C)cc3c3c2c(=O)n(C)c(=O)n3C)cc1OC

>  <subject of test>
NCI-H226 lung

>  <metric name>
growth

>  <readout units>
%

>  <observed result>
108

$$$$
>  <molecule>
Nc1ncnc2c1N=C(c1ccc(Cl)cc1)CC(c1cccc(Nc3ccnc4cc(Cl)ccc34)c1)N2 (stereo not given)

>  <subject of test>
NCI-H226 lung

>  <metric name>
growth

>  <readout units>
%

>  <observed result>
87.5

$$$$
>  <molecule>
CCOC(=O)c1[nH]cc2c1CCc1sc(Nc3ccccn3)nc1-2

>  <subject of test>
NCI-H226 lung

>  <metric name>
growth

>  <readout units>
%

>  <observed result>
57.2

$$$$

----------
# Test system: HCT-15 colon
# protocol: NCI-60 one-dose screen, 48 h (100 = growth as untreated, 0 = no growth, -100 = all killed)
# condition details: 10 µM unless noted
Compounds without any hit were thinned out: in the full panel of roughly 83,000, 20% have a hit.
Returns one of True or False; True when growth is >= 70%.

>  <compound>
CS(=O)(=O)Nc1cc(-c2ccc3ncnc(Nc4ccc(OCc5ccccn5)c(Cl)c4)c3c2)cnc1Cl

>  <class>
False

$$$$
>  <compound>
CN(C)c1ccc(C(=S)c2ccc(N(C)C)cc2)cc1

>  <class>
False

$$$$
>  <compound>
COc1ccc(-c2cc(-c3cn(-c4cccc(Cl)c4)nc3-c3ccc(OC)cc3)on2)cc1

>  <class>
True

$$$$
>  <compound>
O=C(Cc1ccc(/C=C/C(=O)c2ncc[nH]2)cc1)Nc1cc(F)c(F)c(F)c1

>  <class>
False

$$$$
>  <compound>
COC(=O)c1c(C)nc(C)c2c1C(=O)C=C(NCc1ccccc1)C2=O

>  <class>
True

$$$$
>  <compound>
C/C=C1/CN(CCCCC)CC[C@H]1C(=O)c1cc2ccccc2[nH]1

>  <class>
True

$$$$
>  <compound>
COC1C(O)CC(OC2CC(OC3CC(O[C@@H]4C(=O)c5c(cc6cc(OC7CC(OC8CC(O)C(O)C(C)O8)C(O)C(C)O7)c(C)c(O)c6c5O)CC4[C@H](OC)[C@@H](O)C(C)=O)OC(C)C3O)OC(C)C2O)OC1C (some centres undefined)

>  <class>
False

$$$$
>  <compound>
Cn1cc(-c2csc(-c3cn(CCCN4CCOCC4)c4ccc(F)cc34)n2)c2cccnc21

>  <class>
False

$$$$
>  <compound>
Cc1ccc(O)c(NC(=O)c2cccc(Nc3ccnc(C(F)(F)F)c3)c2)c1

>  <class>
True

$$$$
